# Tested on: PC-3 prostate
# assay-method-text: NCI tumour cell line growth inhibition, 48 h; in the data active means GI50 below about 0.43 µM; inactive means the rest
Write down one outcome, taken from label 1 for active, label 0 for inactive

Give the logged outcome of this assay for the following compound: CCOC(=O)c1sc(NCC(=O)Nc2cccc([N+](=O)[O-])c2)c(C(=O)OCC)c1C
label 1

Give the logged outcome of this assay for the following compound: C#CCOc1cccc(-c2nc(N)nc(Nc3ccccc3SSc3ccccc3Nc3nc(N)nc(-c4cccc(OCC#C)c4)n3)n2)c1
label 0

Give the logged outcome of this assay for the following compound: COc1ccc(/C=N/NC(=O)c2[nH]c3ccc(Br)cc3c2-c2ccccc2)o1
label 1

Give the logged outcome of this assay for the following compound: COC(=O)[C@H]1[C@@H](O)[C@@]2(O)c3c(OC)cc(OC)cc3O[C@@]2(c2ccc(OC)cc2)[C@@H]1c1ccccc1
label 1

---

For each record, write down the corresponding TGI.
# Test system: OVCAR-5 ovarian
# assay-method-text: NCI tumour cell line growth inhibition, 48 h
Express your answer in µM, writing the number without its unit.

What TGI appears in the records for this compound with OVCAR-5 ovarian? C#CCOc1cccc(-c2nc(N)nc(Nc3ccccc3SSc3ccccc3Nc3nc(N)nc(-c4cccc(OCC#C)c4)n3)n2)c1
28.2

What TGI appears in the records for this compound with OVCAR-5 ovarian? CCOC(=O)c1sc(NCC(=O)Nc2cccc([N+](=O)[O-])c2)c(C(=O)OCC)c1C
0.824

What TGI appears in the records for this compound with OVCAR-5 ovarian? COc1ccc(/C=N/NC(=O)c2[nH]c3ccc(Br)cc3c2-c2ccccc2)o1
17.6

What TGI appears in the records for this compound with OVCAR-5 ovarian? COC(=O)[C@H]1[C@@H](O)[C@@]2(O)c3c(OC)cc(OC)cc3O[C@@]2(c2ccc(OC)cc2)[C@@H]1c1ccccc1
1.03

These entries and their values trace back to PubChem BioAssay (NCI).
